method: Residue depletion in muscle plus skin and withdrawal times after multiple oral dosing
Assay type: in vivo, European seabass Dicentrarchus labrax
stated_conditions: European seabass (Dicentrarchus labrax), in vivo; 24 hours after last dosing; 10 mg kg^−1 day^−1 for 7 days, 24°C; mean ± SD
property_label: concentration at 24 hours after last dosing (ng/g)

compound | quantitative_readout
CS(=O)(=O)c1ccc([C@@H](O)[C@@H](CF)NC(=O)C(Cl)Cl)cc1 [FLO, florfenicol] | 800

###

method: Minimum plasma concentrations of FLO during multiple oral administrations
Assay type: in vivo
stated_conditions: European seabass (Dicentrarchus labrax), 10 mg/kg/day, multiple oral 10 mg/kg per day for seven consecutive days, 24°C, read-out: Minimum plasma concentrations at the 24 hr sampling intervals

compound | concentration at 24 hr
CS(=O)(=O)c1ccc([C@@H](O)[C@@H](CF)NC(=O)C(Cl)Cl)cc1 [FLO, florfenicol] | 220 to 550 ng/mL

###

method: Residue depletion in muscle plus skin and withdrawal times after multiple oral dosing
Format: in vivo, European seabass Dicentrarchus labrax
stated_conditions: European seabass (Dicentrarchus labrax), in vivo; 72 hours after last dosing; 10 mg kg^−1 day^−1 for 7 days, 24°C; mean ± SD
Experimental: Briefly, muscle plus skin samples were sheared, and subsequently 2 g of ground sample was weighed into a 50 ml centrifuge tube. Ten ml of ethyl acetate were added and the mixture was homogenized with an IKA Ultra‐Turrax T25 Disperser (IKA®‐Werke GmbH & Co. KG, Staufen, Germany) for 30 s at 16,000 g. […] Withdrawal period was determined at the time when the upper one‐sided 95% tolerance limit for the residue was below the MRL with 95% confidence.
property_label: concentration at 72 hours after last dosing (ng/g)

smiles_entry | quantitative_readout
CS(=O)(=O)c1ccc([C@@H](O)[C@@H](CF)NC(=O)C(Cl)Cl)cc1 | 40

###

method: Residue depletion in muscle plus skin and withdrawal times after multiple oral dosing
Format: in vivo, European seabass Dicentrarchus labrax
stated_conditions: European seabass (Dicentrarchus labrax), in vivo; 144 hours after last dosing; 10 mg kg^−1 day^−1 for 7 days, 24°C; mean ± SD
property_label: concentration at 144 hours after last dosing (ng/g)

smiles_entry | quantitative_readout
CS(=O)(=O)c1ccc([C@@H](O)[C@@H](CF)NC(=O)C(Cl)Cl)cc1 | 30

###

method: Residue depletion in muscle plus skin and withdrawal times after multiple oral dosing
Type: in vivo, European seabass Dicentrarchus labrax
stated_conditions: European seabass (Dicentrarchus labrax), in vivo; 48 hours after last dosing; 10 mg kg^−1 day^−1 for 7 days, 24°C; mean ± SD
property_label: concentration at 48 hours after last dosing (ng/g)

smiles_entry | quantitative_readout
CS(=O)(=O)c1ccc([C@@H](O)[C@@H](CF)NC(=O)C(Cl)Cl)cc1 | 250

###

method: Plasma pharmacokinetics of FLO after a single dietary administration
stated_conditions: plasma, po, 10 mg/kg

compound | AUC [ng·h/mL]
CS(=O)(=O)c1ccc([C@@H](O)[C@@H](CF)NC(=O)C(Cl)Cl)cc1 [FLO, florfenicol] | 34700

###

method: Plasma pharmacokinetics of FLO after a single dietary administration
stated_conditions: European seabass (Dicentrarchus labrax), plasma, oral, 10 mg/kg
property_label: Tmax

smiles_entry | result
CS(=O)(=O)c1ccc([C@@H](O)[C@@H](CF)NC(=O)C(Cl)Cl)cc1 | 4 h
